Recorded measurements of selectivity ratio, one per entry
experiment notes: Selectivity index, ratio of CC50 for African green monkey Vero cells to MIC for Mycobacterium tuberculosis H37Rv
Assay type: toxicity
quantity name: selectivity ratio

entry smiles: O=C(NN1C(=O)c2ccccc2C1=O)c1cc2c([nH]c3ccccc32)c(-c2cccc([N+](=O)[O-])c2)n1
quantity name: selectivity ratio
recorded value: 5.2

entry smiles: O=C(NN1C(=O)c2ccccc2C1=O)c1cc2c([nH]c3ccccc32)c(-c2ccc(F)cc2)n1
quantity name: selectivity ratio
recorded value: 6.1

entry smiles: O=C(NN1C(=O)CCC1=O)c1cc2c([nH]c3ccccc32)c(-c2ccc(F)cc2)n1
quantity name: selectivity ratio
recorded value: 2.16

entry smiles: COC(=O)c1cc2c([nH]c3ccccc32)c(-c2ccc(N(C)C)cc2)n1
quantity name: selectivity ratio
recorded value: 3.48

entry smiles: O=C(NN1C(=O)c2ccccc2C1=O)c1cc2c([nH]c3ccccc32)c(-c2ccccc2)n1
quantity name: selectivity ratio
recorded value: 7.2

Taken from ChEMBL document CHEMBL4602632.
